- assay-summary: Single-dose two-period crossover bioequivalence study, fed (high-fat breakfast): plasma pharmacokinetics of lisinopril and amlodipine (LC-MS/MS, NCA)
- experimental-parameters: human, plasma, po, Plasma concentration of lisinopril, Min, minimum among subjects, nominal time 48 h, reference (R) tablets
quantity-name: concentration at 48 h (ng/mL)
Expressed in ng/mL, but write only the number.

Data request: Recorded concentration at 48 h of NCCCC[C@H](N[C@@H](CCc1ccccc1)C(=O)O)C(=O)N1CCC[C@H]1C(=O)O [lisinopril] , please.
Data returned: 0.976

----------
- assay-summary: Single-dose two-period crossover bioequivalence study, fasting: plasma pharmacokinetics of lisinopril and amlodipine (LC-MS/MS, NCA);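 further: single tablet dose 10 mg/5 mg fixed combination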
- experimental-parameters: human, plasma, po, Plasma concentration of amlodipine, Min, reference (R) tablets, nominal time 144 h, minimum over subjects
quantity-name: concentration at 144 h (ng/mL)
Respond numerically; units are ng/mL and should not be typed.

Data request: Could you share which concentration at 144 h value was measured for CCOC(=O)C1=C(COCCN)NC(C)=C(C(=O)OC)C1c1ccccc1Cl (stereo not shown) [amlodipine] ?
Data returned: 0
